# Assayed target: TAAR1 (Mus musculus, UniProt Q923Y8)
# Protocol notes: TAAR1 radioligand binding, membranes of stably transfected HEK293 cells (mouse)
# Experimental parameters: mouse/rat; cell not marked 'rat'; radioligand [3H]-rac-2-(1,2,3,4-tetrahydro-1-naphthyl)-2-imidazoline, 4° C.; read-out: Ki (μM) mouse/rat
Below, each entry is listed alongside its reported Ki.
Readout kind: Ki (µM)

>>> print(df.to_string())
                                    compound  experimental_result
 0       NC1=N[C@@H](c2cc(F)ccc2C(F)(F)F)CO1               0.0088
 1               C[C@@]1(c2ccccc2F)COC(N)=N1               0.0066
 2        CC[C@]1(c2ccc(Cl)c(Cl)c2)COC(N)=N1               0.0052
 3            NC1=N[C@@H](CCc2ccc(Cl)cc2)CO1               0.0006
 4             CCc1cc(Cl)ccc1[C@H]1COC(N)=N1                0.002
 5              Cc1ccc([C@H]2COC(N)=N2)cc1Cl               0.0006
 6        NC1=N[C@@H](CCc2cc(Cl)cc(Cl)c2)CO1               0.0012
 7       C[C@]1(c2cccc(C(F)(F)F)c2)COC(N)=N1               0.0009
 8   NC1=N[C@@H](CCc2ccc(C(F)(F)F)c(F)c2)CO1               0.0025
 9            NC1=N[C@@H](CSc2ccc(Cl)cc2)CO1               0.0037
10              COc1ccc([C@H]2COC(N)=N2)cc1C               0.0029
11            C[C@]1(CCc2ccc(F)cc2)COC(N)=N1               0.0074
12        CC1(CCc2ccccc2)COC(N)=N1 (racemic)               0.0064
13           NC1=N[C@@H](Cc2cccc3ccccc23)CO1               0.0002
14  NC1=N[C@@H](CCc2ccc(OC(F)(F)F)c(Cl)c2)CO1               0.0009
15        NC1=N[C@H](CCc2ccccc2)CO1 [80 (R)]               0.0083
16            NC1=N[C@@H](CCc2ccc(F)cc2F)CO1                0.001
17  CCC(C[C@H]1COC(N)=N1)c1cccc(F)c1 (stereo partly shown)                0.002
18               Cc1cc(F)ccc1[C@H]1COC(N)=N1               0.0036
19         C[C@]1(c2ccc(Cl)c(Cl)c2)COC(N)=N1               0.0009
20           NC1=N[C@@H](c2cc(F)c(F)cc2F)CO1                0.004
21  CCC(C[C@H]1COC(N)=N1)c1ccc(C(F)(F)F)cc1 (stereo partly shown)               0.0063
22            NC1=N[C@@H](COc2cccc(Cl)c2)CO1               0.0028
23         C[C@]1(c2cc(F)c(Cl)cc2F)COC(N)=N1               0.0017
24          C[C@]1(c2ccc(Cl)c(F)c2)COC(N)=N1                0.002
25           NC1=N[C@@H](c2ccc(F)c(F)c2F)CO1               0.0023
26           NC1=N[C@@H](c2cc(F)cc(Cl)c2)CO1               0.0004
27               NC1=N[C@@H](COc2ccccc2F)CO1               0.0003
28      NC1=N[C@@H](CCc2cccc(C(F)(F)F)n2)CO1               0.0068
29             NC1=N[C@@H](c2cc(Cl)ccc2F)CO1               0.0008
30        NC1=N[C@@H](c2cccc(C(F)(F)F)c2)CO1               0.0083
31         C[C@]1(CCc2ccc(Cl)cc2Cl)COC(N)=N1               0.0033
32      NC1=N[C@@H](c2cc(Cl)ccc2C(F)(F)F)CO1               0.0046
33               C[C@]1(c2ccccc2Cl)COC(N)=N1               0.0088
34      C[C@]1(c2ccc(C(F)(F)F)cc2F)COC(N)=N1               0.0024
35      Cc1ccc(F)c(CC2COC(N)=N2)c1 (racemic)               0.0089
36          NC1=N[C@@H](CCc2cc(F)cc(F)c2)CO1               0.0016
37          NC1=N[C@@H](CCc2cccc(Cl)c2Cl)CO1               0.0019
38      NC1=N[C@@H](c2ccc(Cl)cc2C(F)(F)F)CO1                0.003
39  CCC(C[C@H]1COC(N)=N1)c1ccccc1F (stereo partly shown)               0.0059
40  CCC(C[C@H]1COC(N)=N1)c1ccc(Cl)cc1 (stereo partly shown)               0.0025
41             Cc1ccc([C@@]2(C)COC(N)=N2)cc1               0.0062
42  CC(C[C@H]1COC(N)=N1)c1ccc(C(F)(F)F)cc1 (stereo partly shown)               0.0012
